biological target: binding partner of C5A (XPA23); assay: Biacore
Collected fold difference in affinity vs original values appear next to each entry.
Reply numerically in fold, unit not repeated.

Below are worked cases with known answers.
# BINDER, fold difference in affinity vs original [fold]
measured = [
    ("C5A (XPA23) VH K31V (antibody, V domains shown) VH: EVQLLESGGGLVQPGGSLRLSCAASGFTFSVYFMFWVRQAPGKGLEWVSVISPSGGMTRYADSVKGRFTISRDNSKNTLYLQMNSLRAEDTAVYYCARVGYGGNSDYWGQGTLVTVSS VL: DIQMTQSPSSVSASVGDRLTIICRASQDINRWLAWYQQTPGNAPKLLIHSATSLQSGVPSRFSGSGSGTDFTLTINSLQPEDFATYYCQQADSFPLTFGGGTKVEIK", 0.81),
    ("C5A (XPA23) VH F33V (antibody, V domains shown) VH: EVQLLESGGGLVQPGGSLRLSCAASGFTFSKYVMFWVRQAPGKGLEWVSVISPSGGMTRYADSVKGRFTISRDNSKNTLYLQMNSLRAEDTAVYYCARVGYGGNSDYWGQGTLVTVSS VL: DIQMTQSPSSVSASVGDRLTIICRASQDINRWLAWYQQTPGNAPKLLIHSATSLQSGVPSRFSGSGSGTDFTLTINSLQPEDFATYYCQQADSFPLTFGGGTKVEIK", 0.76),
    ("C5A (XPA23) VH P53I (antibody, V domains shown) VH: EVQLLESGGGLVQPGGSLRLSCAASGFTFSKYFMFWVRQAPGKGLEWVSVISISGGMTRYADSVKGRFTISRDNSKNTLYLQMNSLRAEDTAVYYCARVGYGGNSDYWGQGTLVTVSS VL: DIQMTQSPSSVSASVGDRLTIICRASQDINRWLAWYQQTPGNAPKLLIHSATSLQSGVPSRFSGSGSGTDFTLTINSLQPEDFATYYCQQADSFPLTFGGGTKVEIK", 0.08),
    ("C5A (XPA23) VH V50L (antibody, V domains shown) VH: EVQLLESGGGLVQPGGSLRLSCAASGFTFSKYFMFWVRQAPGKGLEWVSLISPSGGMTRYADSVKGRFTISRDNSKNTLYLQMNSLRAEDTAVYYCARVGYGGNSDYWGQGTLVTVSS VL: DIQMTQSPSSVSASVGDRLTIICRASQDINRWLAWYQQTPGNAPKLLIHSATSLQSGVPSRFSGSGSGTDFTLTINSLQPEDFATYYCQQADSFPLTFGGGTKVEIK", 0.09),
]

Now, please, on to the next binder.
Input: Which measured fold difference in affinity vs original value corresponds to C5A (XPA23) VH S105I (antibody, V domains shown) VH: EVQLLESGGGLVQPGGSLRLSCAASGFTFSKYFMFWVRQAPGKGLEWVSVISPSGGMTRYADSVKGRFTISRDNSKNTLYLQMNSLRAEDTAVYYCARVGYGGNIDYWGQGTLVTVSS VL: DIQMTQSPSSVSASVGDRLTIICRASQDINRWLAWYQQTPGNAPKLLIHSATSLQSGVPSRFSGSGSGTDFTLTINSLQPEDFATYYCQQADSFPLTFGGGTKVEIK ?
Output: 0.07

Every entry's value here was drawn from patent US20110118447A1.
